# target of assay: FlgE (flagellar hook protein) (Treponema denticola, UniProt Q9RQB6)
# Sequence (Q9RQB6 11-454): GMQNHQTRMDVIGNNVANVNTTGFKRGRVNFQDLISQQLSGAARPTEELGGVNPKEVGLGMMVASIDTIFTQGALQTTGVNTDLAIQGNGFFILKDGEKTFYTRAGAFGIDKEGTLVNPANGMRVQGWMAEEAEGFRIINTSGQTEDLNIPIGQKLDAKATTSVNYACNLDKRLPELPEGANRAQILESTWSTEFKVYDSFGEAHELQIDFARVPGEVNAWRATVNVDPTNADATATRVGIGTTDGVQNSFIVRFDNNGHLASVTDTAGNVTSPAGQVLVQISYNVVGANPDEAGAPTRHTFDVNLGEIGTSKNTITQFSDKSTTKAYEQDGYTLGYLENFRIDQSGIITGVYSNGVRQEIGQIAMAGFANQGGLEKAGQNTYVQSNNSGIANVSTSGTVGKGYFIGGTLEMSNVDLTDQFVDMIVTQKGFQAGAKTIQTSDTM
# protocol description: ELISA of Lal crosslinking between purified FlgE subunits, dose-response
# Assay type: biochemical
measure name: IC50
Write the quantity with the unit trailing the number.

Exercise: Looking for the measured IC50 of COc1cc(C(=O)NS(=O)(=O)c2ccccc2C)ccc1Cc1cn(C)c2ccc(NC(=O)OC3CCCC3)cc12 , can you help?
Key: 92 µM
